# assay_details: Particle size analysis (Lecotrac laser particle size analyser) pre and post nanomilling
# Assay type: physicochemical
# stated_conditions: Table C; after nanomilling, 1 g scale

>  <structure>
O=C(NCC1CCOCC1)c1cnc(Nc2ccc(Cl)cc2Cl)nc1C(F)(F)F

>  <Post-nanomilling 50% percentile [μ]>
0.18

$$$$
>  <structure>
O=C(NCC1CCCC1)c1cnc(Nc2ccc(F)c(Cl)c2)nc1C(F)(F)F

>  <Post-nanomilling 50% percentile [μ]>
0.64

$$$$
>  <structure>
O=C(NCC1CCCCC1)c1cnc(Nc2cccc(F)c2)nc1C(F)(F)F

>  <Post-nanomilling 50% percentile [μ]>
0.40

$$$$
>  <structure>
N#Cc1ccc(Nc2ncc(C(=O)NCC3CCOCC3)c(C(F)(F)F)n2)cc1Cl

>  <Post-nanomilling 50% percentile [μ]>
0.34

$$$$
>  <structure>
O=C(NCC1CCC1)c1cnc(Nc2ccc(F)c(Cl)c2)nc1C(F)(F)F

>  <Post-nanomilling 50% percentile [μ]>
0.56

$$$$
>  <structure>
O=C(NCC1CCC1)c1cnc(Nc2ccc(Cl)cc2F)nc1C(F)(F)F

>  <Post-nanomilling 50% percentile [μ]>
0.44

$$$$
